Target: T1, human IL-36R extracellular domain expressed with a C-terminal mouse IgG2a Fc tag (hIL-36R-mFc) (human; mouse, UniProt Q9HB29 20-337)
T1 construct: not shown: mouse IgG2a Fc, E98-K330
T1 sequence (looked up): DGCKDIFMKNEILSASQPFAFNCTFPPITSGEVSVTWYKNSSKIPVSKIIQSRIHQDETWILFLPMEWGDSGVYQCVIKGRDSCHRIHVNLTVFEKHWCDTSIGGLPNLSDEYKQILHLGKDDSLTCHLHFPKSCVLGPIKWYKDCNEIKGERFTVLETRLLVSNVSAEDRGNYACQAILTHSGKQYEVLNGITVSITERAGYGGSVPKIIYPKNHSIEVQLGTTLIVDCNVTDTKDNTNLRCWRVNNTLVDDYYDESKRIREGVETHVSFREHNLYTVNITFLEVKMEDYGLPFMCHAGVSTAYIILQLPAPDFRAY
Assay: SPR Biacore 4000, mAb captured on anti-hFc, 25C
Each item that follows carries a reported log10 Kd.
Units before log transform: nM; reported quantity: Kd; transform: log10.

Examples with their reported log10 Kd follow.
BINDER	log10 Kd
H4H14731P (antibody, human IgG4 S228P, kappa, V domains shown, Fully human anti-IL-36R antibody) VH: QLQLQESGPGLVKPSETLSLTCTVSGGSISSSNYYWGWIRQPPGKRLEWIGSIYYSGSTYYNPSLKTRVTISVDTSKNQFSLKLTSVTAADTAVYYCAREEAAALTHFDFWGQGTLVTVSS VL: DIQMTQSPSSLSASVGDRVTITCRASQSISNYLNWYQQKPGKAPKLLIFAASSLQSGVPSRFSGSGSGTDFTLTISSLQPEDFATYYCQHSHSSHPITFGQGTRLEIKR	0.76
H4H14699P2 (antibody, human IgG4 S228P, kappa, V domains shown, Fully human anti-IL-36R antibody) VH: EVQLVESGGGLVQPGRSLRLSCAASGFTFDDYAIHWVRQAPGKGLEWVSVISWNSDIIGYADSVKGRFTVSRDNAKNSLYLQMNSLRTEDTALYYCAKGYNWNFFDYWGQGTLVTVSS VL: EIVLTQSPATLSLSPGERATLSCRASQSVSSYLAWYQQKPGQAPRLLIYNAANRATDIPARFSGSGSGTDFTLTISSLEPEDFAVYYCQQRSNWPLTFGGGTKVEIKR	-0.44
H4H14757P (antibody, human IgG4 S228P, kappa, V domains shown, Fully human anti-IL-36R antibody) VH: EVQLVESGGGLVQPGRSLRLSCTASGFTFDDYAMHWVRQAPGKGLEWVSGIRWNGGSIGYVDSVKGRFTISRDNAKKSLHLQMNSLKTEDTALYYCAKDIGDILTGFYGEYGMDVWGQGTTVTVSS VL: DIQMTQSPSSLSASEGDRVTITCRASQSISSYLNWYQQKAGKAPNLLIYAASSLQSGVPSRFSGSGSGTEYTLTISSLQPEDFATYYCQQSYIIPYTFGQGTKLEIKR	-0.76

Q: What measured log10 Kd goes with H4H14706P2 (antibody, human IgG4 S228P, kappa, V domains shown, Fully human anti-IL-36R antibody) VH: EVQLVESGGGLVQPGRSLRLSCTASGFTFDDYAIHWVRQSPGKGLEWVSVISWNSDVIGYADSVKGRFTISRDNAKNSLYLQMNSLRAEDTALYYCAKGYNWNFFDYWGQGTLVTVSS VL: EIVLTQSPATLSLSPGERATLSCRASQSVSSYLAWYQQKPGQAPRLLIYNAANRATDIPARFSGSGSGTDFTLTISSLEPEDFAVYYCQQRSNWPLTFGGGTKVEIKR ?
Result: -0.64

Q: For H4H14700P2 (antibody, human IgG4 S228P, kappa, V domains shown, Fully human anti-IL-36R antibody) VH: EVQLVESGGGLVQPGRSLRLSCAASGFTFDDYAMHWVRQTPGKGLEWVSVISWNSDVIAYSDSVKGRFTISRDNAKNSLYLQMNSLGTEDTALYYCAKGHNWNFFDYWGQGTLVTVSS VL: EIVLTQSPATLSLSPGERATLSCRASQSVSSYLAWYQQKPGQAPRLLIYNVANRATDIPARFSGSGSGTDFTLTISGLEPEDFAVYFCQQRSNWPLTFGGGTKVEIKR , what is its reported log10 Kd?
Result: -0.63

Q: Entry H4H14758P (antibody, human IgG4 S228P, kappa, V domains shown, Fully human anti-IL-36R antibody) VH: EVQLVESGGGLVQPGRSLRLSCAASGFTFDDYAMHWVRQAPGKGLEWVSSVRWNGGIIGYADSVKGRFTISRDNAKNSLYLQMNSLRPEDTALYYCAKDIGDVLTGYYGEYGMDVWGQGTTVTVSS VL: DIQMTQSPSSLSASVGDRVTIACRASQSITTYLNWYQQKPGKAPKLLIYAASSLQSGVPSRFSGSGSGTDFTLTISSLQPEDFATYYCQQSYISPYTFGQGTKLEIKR has what log10 Kd?
Result: -0.51

Q: Report log10 Kd for H4H14709P (antibody, human IgG4 S228P, kappa, V domains shown, Fully human anti-IL-36R antibody) VH: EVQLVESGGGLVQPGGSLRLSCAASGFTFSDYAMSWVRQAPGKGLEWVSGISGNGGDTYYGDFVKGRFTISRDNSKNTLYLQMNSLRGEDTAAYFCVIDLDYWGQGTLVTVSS VL: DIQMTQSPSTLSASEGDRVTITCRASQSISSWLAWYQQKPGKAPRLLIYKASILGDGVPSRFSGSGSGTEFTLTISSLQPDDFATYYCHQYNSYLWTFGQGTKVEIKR please.
Result: -0.47

Q: What log10 Kd value was documented for this binder, H4H14708P2 (antibody, human IgG4 S228P, kappa, V domains shown, Fully human anti-IL-36R antibody) VH: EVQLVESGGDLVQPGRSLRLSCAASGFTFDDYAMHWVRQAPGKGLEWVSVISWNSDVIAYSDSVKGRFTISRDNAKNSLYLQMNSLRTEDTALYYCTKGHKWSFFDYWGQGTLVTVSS VL: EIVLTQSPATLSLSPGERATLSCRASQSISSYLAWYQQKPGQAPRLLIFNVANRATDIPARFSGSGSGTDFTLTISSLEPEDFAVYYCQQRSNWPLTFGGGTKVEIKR ?
Result: -0.50
